tested on: NS3 D168G mutant HCV subgenomic replicon in Huh-7 cells; assay: Inhibitor EC50 in NS3 D168G mutant replicon cell line; type: cell-based; details: Hepatitis C virus, Huh-7, read-out: EC50, D168G
Measured metric: pEC50
When answering, recall that pEC50 equals minus log10 of the concentration in mol/L, and write that number alone.

Item under review: COc1ccc2c(O[C@@H]3C[C@H]4C(=O)N[C@]5(C(=O)O)C[C@H]5/C=C\CCCCC[C@H](NC(=O)OC5CCCC5)C(=O)N4C3)cc(-c3csc(NC(C)C)n3)nc2c1 . Reported pEC50?
7.64

###

biological target: NS3 protease (1-180) R155Q-NS4A peptide complex (Hepatitis C virus genotype 1b, UniProt Q9WMX2, R1181Q); construct: the NS3 protease (1–180) coding region for wild-type; assay: In vitro enzyme assay, Ki, NS3 protease-NS4A peptide complex R155Q; conditions: calculated Ki from IC50
Sequence (Q9WMX2 1027-1206 R1181Q, one chain of several): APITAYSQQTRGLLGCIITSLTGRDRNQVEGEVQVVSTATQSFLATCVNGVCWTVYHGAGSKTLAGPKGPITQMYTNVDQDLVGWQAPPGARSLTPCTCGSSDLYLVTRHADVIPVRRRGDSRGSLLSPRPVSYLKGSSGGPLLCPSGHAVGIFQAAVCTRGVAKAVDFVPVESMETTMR
Measured metric: pKi
When answering, recall that pKi equals minus log10 of the concentration in mol/L, and write that number alone.

Item under review: COc1ccc2c(O[C@@H]3C[C@H]4C(=O)N[C@]5(C(=O)O)C[C@H]5/C=C\CCCCC[C@H](NC(=O)OC5CCCC5)C(=O)N4C3)cc(-c3csc(NC(C)C)n3)nc2c1 [inhibitor A] . Reported pKi?
6.66
